- Test system: NF-κB nuclear transport
- test.protocol: NF-κB nucleo-cytoplasmic transport, high throughput immuno-fluorescence assay in HeLa cells
- Format: cell-based, human
- condition.summary: HeLa cells; FIG. 5; read-out: IC50 for block of nuclear transport of NF-κB
measured.attribute: pIC50
On this scale, pIC50 is minus log10 of a concentration expressed in M (mol/L).

Request the reported pIC50 associated with CCC(=C/[C@H](C)C/C=C/C(C)=C/[C@@H](C)C(=O)[C@@H](C)[C@H](O)[C@@H](C)C/C(C)=C/C(=O)O)/C=C/[C@@H]1OC(=O)C=C[C@@H]1C
8.36
